- assay-text: LNCaP granularity increase inducers, single-point recheck – cell-based, side scatter shift, flow cytometry, confirmation (AID 1069);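 also: LNCaP human prostate cancer cells in low-serum medium with charcoal-stripped FBS; percent of cells with raised granularity gated so DMSO controls show 10%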
- condition-context: LNCaP differentiation, 4 d, at 100 µM, hits give high values
experimental-endpoint: side scatter shift (%)
Write the value in % as a bare number.

Query: Please look at this compound and report its side scatter shift: CC(C)(O)c1cn(-c2nonc2N)nn1
Reply: 10.4

Query: Give the measured side scatter shift for CCc1ccc(-c2nc(CN3CCC(C(=O)NCCN(CC)c4ccccc4)CC3)c(C)o2)cc1
Reply: 50

Query: Indicate the recorded side scatter shift value for this compound: COc1ccc(Nc2nc(N3CCCC3)c3ccccc3n2)cc1
Reply: 14

Query: Given the compound CCN(CC)CCCNC(=O)c1cc(-c2cccc(Cl)c2)on1 , write its reported side scatter shift.
Reply: 4.1

Query: // Input: CCOc1ccc(-n2cc(C(=O)N3CCC(C)CC3)c3cc(OC)c(OC)cc3c2=O)cc1 . Output its side scatter shift only.
Reply: 16.3

Query: Check the records and state side scatter shift for COc1ccc(Cl)c(N2CCN(CCCNC(=O)Nc3ccc(C)cc3)CC2)c1
Reply: 26.3

Query: Report side scatter shift for COc1ccc2cc3c(N)nn(C(=O)Cc4ccccc4OC)c3nc2c1
Reply: 20

Query: Give the measured side scatter shift for CN1CCN(c2cc3c(c4c2[nH]c2ccccc24)C(=O)CC(C)(C)C3)CC1
Reply: 16.1

Query: Identify the reported side scatter shift for the following entry. CCOC(=O)C1=C(C)Nc2nc(SC)nn2C1c1ccc(C(=O)OC)cc1 (stereo unspecified)
Reply: 7.7

Query: Read off the recorded side scatter shift for O=C(CCn1c(=O)oc2ccccc21)NCCCN1CCN(c2ccc(F)cc2)CC1
Reply: 25.4

Query: Using the record for CCN1CCN(c2ncc(C(=O)Nc3cc(Cl)c(OC)cc3OC)c3ccccc23)CC1 , state its measured side scatter shift.
Reply: 53.7

Query: Tell us which side scatter shift value is on record for COc1cc2c(C(=O)NCCCN3CCN(c4cccc(Cl)c4)CC3)cn(C)c(=O)c2cc1OC
Reply: 53.3

Query: Name the recorded side scatter shift of the compound listed here: Cc1ccc(C2=Nc3ccccc3NC(C)(c3ccc(C)o3)C2)o1 (stereo unspecified)
Reply: 7.1

Query: Report side scatter shift, nothing else, for this compound: Cc1cccc(-c2nc(CN3CCCC(C(=O)NC4CCCC4)C3)c(C)o2)c1 (stereo unspecified)
Reply: 13.8

Query: Report side scatter shift, nothing else, for this compound: COc1ccc(Cc2noc(-c3ccc(C)cc3)n2)cc1
Reply: 21.4

Query: Supply recorded side scatter shift for Cc1cc(N2CCC(N(C)C3CCCC3)CC2)nc2cc(O)ccc12 here.
Reply: 65.4

Query: Output side scatter shift of CCOC(=O)N1CCN(C(=O)C2CCN(Cc3nc(-c4ccccc4C)oc3C)CC2)CC1
Reply: 30.6

Query: Please give the documented side scatter shift of CC1(C)CC(=O)c2cc(OCC(=O)NCCCN3CCN(c4ccccc4F)CC3)ccc2O1
Reply: 27.3

Query: State its side scatter shift: O=C(NCC(c1cccnc1)N1CCOCC1)c1cccc(Cl)c1 (stereo unspecified)
Reply: 11.4

Query: Hello, please tell me recorded side scatter shift for this one: CCc1ccc(CNC(=O)CN2C(=O)COc3ccccc32)cc1
Reply: 9

Query: Given the compound Cc1ccccc1-c1nc(CN2CCC(C(=O)N3CCC(C(N)=O)CC3)CC2)c(C)o1 , write its reported side scatter shift.
Reply: 12

Query: Indicate the recorded side scatter shift value for this compound: O=C(CCNC(=O)Cn1ccc2ccccc2c1=O)NCCCN1CCN(c2ccccc2F)CC1
Reply: 35.7

Query: Output side scatter shift of COc1ccc(Cl)cc1N1CCN(CCNC(=O)Nc2ccccc2C)CC1
Reply: 16.7

Query: Give reported side scatter shift value for CC(C)Cc1nc2oc3c(N4CCN(CCO)CC4)ncnc3c2c2c1CCCC2
Reply: 33.3

Query: Give recorded side scatter shift. Cc1nnc(NCc2n[nH]c(=O)c3ccccc23)c2ccccc12
Reply: 46.8

Query: Please report side scatter shift for the following compound: Cc1oc(-c2cccc(Cl)c2)nc1CN1CCC(C(=O)NCc2cccnc2)CC1
Reply: 28.9
